STUDY SYSTEM: MAGL (Mus musculus, UniProt O35678)
Construct: Proteomes (mouse brain membrane fraction or cell lysates); from tissue; host or cells: mouse brain membrane fraction (or unspecified cell lysates)
Sequence (O35678 whole entry): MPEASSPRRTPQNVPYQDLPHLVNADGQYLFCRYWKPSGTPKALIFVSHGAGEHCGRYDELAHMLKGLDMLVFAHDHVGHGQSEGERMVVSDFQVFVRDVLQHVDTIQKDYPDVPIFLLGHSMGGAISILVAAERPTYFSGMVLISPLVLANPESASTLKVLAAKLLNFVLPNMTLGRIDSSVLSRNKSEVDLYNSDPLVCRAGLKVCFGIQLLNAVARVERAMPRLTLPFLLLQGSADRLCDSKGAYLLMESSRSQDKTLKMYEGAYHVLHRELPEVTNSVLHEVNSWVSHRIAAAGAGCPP
PROTOCOL: In vitro competitive activity-based protein profiling (mouse), MAGL
Assay type: biochemical
CONDITION DETAILS: mouse brain membrane fraction or cell lysates, 30 min preincubation at 37° C, FP-Rh probe
OBSERVED PROPERTY: IC50

1. COc1c(CN2CCC(F)CC2)cccc1CN1CCN(C(=O)OC(C(F)(F)F)C(F)(F)F)CC1; < 100 nM
2. O=C(OC(C(F)(F)F)C(F)(F)F)N1CCN(Cc2cccc(OC(F)(F)F)c2N2CC3CCC(C2)O3)CC1; < 100 nM
3. O=C(OC(C(F)(F)F)C(F)(F)F)N1CCN(Cc2ccc(Cl)cc2N2CC[C@H](CF)C2)CC1; < 100 nM
4. Cc1cccc(CN2CCN(C(=O)OC(C(F)(F)F)C(F)(F)F)CC2)c1N1CC[C@H](CF)C1; < 100 nM
5. CS(=O)(=O)N[C@@H]1CCN(c2cc(Cl)ccc2CN2CCN(C(=O)OC(C(F)(F)F)C(F)(F)F)CC2)C1; < 100 nM

Lab note: next compound to report on.
Lookup: Tell me the measured IC50 of `O=C(OC(C(F)(F)F)C(F)(F)F)N1CCN(Cc2ccc(C(F)(F)F)cc2N2CCC3(CCCN3C3CC3)CC2)CC1` , please.
Found: 100 to 1000 nM

###

STUDY SYSTEM: ABHD6 (Mus musculus, UniProt Q8R2Y0)
Construct: Proteomes (mouse brain membrane fraction or cell lysates); from tissue; host or cells: mouse brain membrane fraction (or unspecified cell lysates)
Sequence (Q8R2Y0 1-336): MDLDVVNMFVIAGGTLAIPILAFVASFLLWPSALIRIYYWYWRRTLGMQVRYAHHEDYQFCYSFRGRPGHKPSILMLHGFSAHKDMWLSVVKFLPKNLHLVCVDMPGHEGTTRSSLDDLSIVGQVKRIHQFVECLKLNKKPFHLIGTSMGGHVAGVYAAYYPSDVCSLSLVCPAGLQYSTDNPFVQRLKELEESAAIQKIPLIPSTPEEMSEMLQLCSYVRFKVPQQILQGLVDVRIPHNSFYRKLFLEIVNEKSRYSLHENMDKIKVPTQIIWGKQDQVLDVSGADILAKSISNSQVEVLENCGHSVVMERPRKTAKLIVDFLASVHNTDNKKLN
PROTOCOL: In vitro competitive activity-based protein profiling (mouse), ABHD6
Format: biochemical
CONDITION DETAILS: 1 μM, mouse proteome, in vitro; read-out: % Inhibition at 1 μM ABHD6
Recorded inhibition at 1 µM values for a group of compounds are listed next.

Below are worked cases with known answers.
1) COc1c(CN2CCN(C(=O)OC(C(F)(F)F)C(F)(F)F)CC2)cccc1CN1CCC(F)(F)CC1; > 75%
2) CS(=O)(=O)N[C@@H]1CCN(c2cc(Cl)ccc2CN2CCN(C(=O)OC(C(F)(F)F)C(F)(F)F)CC2)C1; 25 to 75%
3) Cc1c(CN2CCN(C(=O)OC(C(F)(F)F)C(F)(F)F)CC2)cccc1CN1CCC(F)(F)CC1; > 75%
4) O=C(O)C1CCN(c2cc(C(F)(F)F)ccc2CN2CCN(C(=O)OC(C(F)(F)F)C(F)(F)F)CC2)CC1; > 75%
5) Cc1c(CN2CCN(C(=O)OC(C(F)(F)F)C(F)(F)F)CC2)cccc1CN1CCN(S(C)(=O)=O)CC1; > 75%

Lookup: Tell me the measured inhibition at 1 µM of O=C(OC(C(F)(F)F)C(F)(F)F)N1CCN(Cc2ccc(C(F)(F)F)c(N3CCCC3CO)c2)CC1 (stereo not shown) , please.
Found: > 75%

Lookup: Tell me the measured inhibition at 1 µM of `O=C(OC(C(F)(F)F)C(F)(F)F)N1CCN(Cc2ccc(C(F)(F)F)cc2N2CCC(C(=O)N3CCCC3)CC2)CC1` , please.
Found: < 25%

###

STUDY SYSTEM: MAGL (Mus musculus, UniProt O35678)
Construct: Proteomes (mouse brain membrane fraction or cell lysates); from tissue; host or cells: mouse brain membrane fraction (or unspecified cell lysates)
PROTOCOL: In vitro competitive activity-based protein profiling (mouse), MAGL
Type: biochemical
CONDITION DETAILS: mouse brain membrane fraction or cell lysates, 30 min preincubation at 37° C, FP-Rh probe
Recorded IC50 values for a group of compounds are listed next.

1) C#CCO[C@H]1CCN(c2cc(Cl)ccc2CN2CCN(C(=O)OC(C(F)(F)F)C(F)(F)F)CC2)C1; < 100 nM
2) O=C(OC(C(F)(F)F)C(F)(F)F)N1CCN(Cc2ccc(C(F)(F)F)cc2N2CCC(C(=O)N3CCCC3)CC2)CC1; 100 to 1000 nM
3) CCOC(=O)C1CCCN1c1cc(C(F)(F)F)ccc1CN1CCN(C(=O)OC(C(F)(F)F)C(F)(F)F)CC1 (centres unmarked); < 100 nM
4) CC(=O)N1CCN(Cc2cccc(CN3CCN(C(=O)OC(C(F)(F)F)C(F)(F)F)CC3)c2C)CC1; < 100 nM

Lookup: Tell me the measured IC50 of `O=C(OC(C(F)(F)F)C(F)(F)F)N1CCN(Cc2ccc(C(F)(F)F)cc2N2CC[C@H](CF)C2)CC1` , please.
Found: < 100 nM

Lookup: Tell me the measured IC50 of O=C(OC(C(F)(F)F)C(F)(F)F)N1CCN(Cc2ccc(C(F)(F)F)cc2N2CCCC2CO)CC1 (centres unmarked) , please.
Found: < 100 nM

Lookup: Tell me the measured IC50 of `CN(C)C(=O)C1CCN(c2cc(C(F)(F)F)ccc2CN2CCN(C(=O)OC(C(F)(F)F)C(F)(F)F)CC2)CC1` , please.
Found: < 100 nM

Lookup: Tell me the measured IC50 of `O=C(O)[C@@H]1CCCN1c1cc(CN2CCN(C(=O)OC(C(F)(F)F)C(F)(F)F)CC2)cc(C(F)(F)F)c1` , please.
Found: 100 to 1000 nM

###

STUDY SYSTEM: MAGL (Mus musculus)
Construct: Proteomes (mouse brain membrane fraction or cell lysates); from tissue; host or cells: mouse brain membrane fraction (or unspecified cell lysates)
PROTOCOL: In vitro competitive activity-based protein profiling (mouse), MAGL
Assay type: biochemical
CONDITION DETAILS: mouse brain membrane fraction or cell lysates, 30 min preincubation at 37° C, FP-Rh probe
Recorded IC50 values for a group of compounds are listed next.

1. COc1c(CN2CCN(C(=O)OC(C(F)(F)F)C(F)(F)F)CC2)cccc1CN1CCC(F)(F)CC1 [Example 16]; < 100 nM

Lookup: Tell me the measured IC50 of O=C(OC(C(F)(F)F)C(F)(F)F)N1CCN(Cc2ccc(Cl)cc2N2CCC3(CCCN3C3CC3)CC2)CC1 [Example 66] , please.
Found: 100 to 1000 nM

Lookup: Tell me the measured IC50 of O=C(OC(C(F)(F)F)C(F)(F)F)N1CCN(Cc2ccc(C(F)(F)F)cc2N2CCC(CO)C2)CC1 (stereo not shown) [Example 73] , please.
Found: < 100 nM

Lookup: Tell me the measured IC50 of Cc1cc(C)n(C2CN(c3cc(Cl)ccc3CN3CCN(C(=O)OC(C(F)(F)F)C(F)(F)F)CC3)C2)n1 [Example 38] , please.
Found: < 100 nM

###

Recorded inhibition at 1 µM values for a group of compounds are listed next.
STUDY SYSTEM: ABHD6 (Mus musculus, UniProt Q8R2Y0)
Construct: Proteomes (mouse brain membrane fraction or cell lysates); from tissue; host or cells: mouse brain membrane fraction (or unspecified cell lysates)
PROTOCOL: In vitro competitive activity-based protein profiling (mouse), ABHD6
Format: biochemical
CONDITION DETAILS: 1 μM, mouse proteome, in vitro; read-out: % Inhibition at 1 μM ABHD6

Below are worked cases with known answers.
1) O=C(O)C(=O)c1cc(C(F)(F)F)ccc1CN1CCN(C(=O)OC(C(F)(F)F)C(F)(F)F)CC1 [Example 76]; > 75%
2) O=C(OC(C(F)(F)F)C(F)(F)F)N1CCN(Cc2ccc(N3CC4CCC(C3)O4)cc2OC(F)(F)F)CC1 [Example 28]; < 25%
3) O=C(OC(C(F)(F)F)C(F)(F)F)N1CCN(Cc2ccc(C(F)(F)F)cc2N2CCC3(CCCN3C3CC3)CC2)CC1 [Example 67]; < 25%
4) Cc1ccc(CN2CCN(C(=O)OC(C(F)(F)F)C(F)(F)F)CC2)c(N2CC[C@H](CF)C2)c1 [Example 53]; < 25%
5) O=C(OC(C(F)(F)F)C(F)(F)F)N1CCN(Cc2cc(N3CCC(CO)C3)cc(C(F)(F)F)c2)CC1 (stereo not shown) [Example 90]; > 75%

Lookup: Tell me the measured inhibition at 1 µM of O=C(OC(C(F)(F)F)C(F)(F)F)N1CCN(Cc2ccc(C(F)(F)F)c(N3CCC(CO)C3)c2)CC1 (stereo not shown) [Example 81] , please.
Found: > 75%

Lookup: Tell me the measured inhibition at 1 µM of O=C(O)C1CN(c2cc(CN3CCN(C(=O)OC(C(F)(F)F)C(F)(F)F)CC3)ccc2C(F)(F)F)CCO1 (stereo not shown) [Example 83] , please.
Found: < 25%

Lookup: Tell me the measured inhibition at 1 µM of CS(=O)(=O)N[C@@H]1CCN(c2cccc(C(F)(F)F)c2CN2CCN(C(=O)OC(C(F)(F)F)C(F)(F)F)CC2)C1 [Example 47] , please.
Found: < 25%

Lookup: Tell me the measured inhibition at 1 µM of O=C(O)[C@@H]1CCCN1c1cc(CN2CCN(C(=O)OC(C(F)(F)F)C(F)(F)F)CC2)cc(C(F)(F)F)c1 [Example 86] , please.
Found: 25 to 75%

Lookup: Tell me the measured inhibition at 1 µM of CC(=O)N[C@@H]1CCN(Cc2cccc(CN3CCN(C(=O)OC(C(F)(F)F)C(F)(F)F)CC3)c2C)C1 [Example 17] , please.
Found: > 75%
